Target: δ opioid receptor (Homo sapiens (Human), UniProt P41143)
Sequence (P41143 whole entry, looked up): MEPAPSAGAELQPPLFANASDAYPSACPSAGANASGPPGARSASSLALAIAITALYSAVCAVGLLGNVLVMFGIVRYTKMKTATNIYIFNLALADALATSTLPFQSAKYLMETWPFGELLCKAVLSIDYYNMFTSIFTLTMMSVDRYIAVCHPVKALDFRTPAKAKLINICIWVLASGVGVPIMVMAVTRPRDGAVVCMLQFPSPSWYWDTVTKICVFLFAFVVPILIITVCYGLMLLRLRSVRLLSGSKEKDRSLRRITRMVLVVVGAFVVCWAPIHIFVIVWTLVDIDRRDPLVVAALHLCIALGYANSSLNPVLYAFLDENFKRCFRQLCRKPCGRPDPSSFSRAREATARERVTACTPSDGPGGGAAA
Assay: δ-opioid receptor [35S]GTPγS functional assay, HEK-293 or CHO cells
ATTRIBUTE MEASURED: EC50
Field: value (include unit after the number)

{"STRUCTURE NOTATION": "O=C1NC[C@@]2(CC[C@@]3(O)[C@H]4Cc5ccc(O)cc5[C@@]3(CCN4CC3CC3)C2)N1", "EC50": "37 nM"}

Next:
Ask: I have this compound here, O=C1NC(=O)[C@@]2(CC[C@@]3(O)[C@H]4Cc5ccc(O)cc5[C@@]3(CCN4CC3CC3)C2)N1 , and I need its recorded EC50.
Result: 34.8 nM

---

Biological target: UniProtKB P35372
Experiment: μ-opioid receptor radioligand ([3H]-diprenorphine) dose-displacement binding assay
Conditions: binding affinity, read-out: Opioid Receptor Ki (nM) μ
Listing: Ki of selected molecules
Output spec: scalar in nM, unitless text.

Ask: I have this molecule here, O=C1NC(=O)[C@@]2(CC[C@H]3[C@H]4Cc5ccc(O)cc5[C@@]3(CCN4CC3CC3)C2)N1 , and I need its recorded Ki.
Result: 8.39

Ask: Thanks! And CN1C(=O)NC(=O)[C@@]12CC[C@@]1(O)[C@H]3Cc4ccc(O)cc4[C@@]1(CCN3CC1CC1)C2 ?
Result: 0.86

Ask: Thanks! And O=C1NC[C@@]2(CC[C@@]3(O)[C@H]4Cc5ccc(O)cc5[C@@]3(CCN4CC3CC3)C2)N1 ?
Result: 3.55

Ask: Thanks! And CN1CC[C@]23C[C@]4(CC[C@@]2(O)[C@H]1Cc1ccc(O)cc13)NC(=O)NC4=O ?
Result: 27

---

Listing: Emax of selected molecules
Target: μ-opioid receptor (Homo sapiens (Human))
Experiment: μ-opioid receptor [35S]GTPγS functional assay, U-2 OS cells
Type: biochemical
Settings: relative to DAMGO; U-2 OS cells

Before answering, review these 2 worked examples.
{"STRUCTURE NOTATION": "COc1ccc2c(c1)[C@]13CCN(CCCC(F)(F)F)[C@H](C2)[C@]1(O)CC[C@@]1(C3)NC(=O)NC1=O", "TESTED TARGET": "μ-opioid receptor (Homo sapiens (Human))", "Emax": "20.7%"}
{"STRUCTURE NOTATION": "O=C1NC(=O)[C@@]2(CC[C@@]3(O)[C@H]4Cc5ccc(O)cc5[C@@]3(CCN4CC(F)(F)F)C2)N1", "TESTED TARGET": "μ-opioid receptor (Homo sapiens (Human))", "Emax": "1.5%"}

Ask: Request - read-out Emax | tested on μ-opioid receptor (Homo sapiens (Human)) | molecule O=C1NC(=O)[C@@]2(CC[C@@]3(O)[C@H]4Cc5ccc(O)cc5[C@@]3(CCN4CCF)C2)N1
Result: 56.7%

---

Molecular target: κ opioid receptor (Homo sapiens (Human))
Test: κ-opioid receptor [35S]GTPγS functional assay, U-2 OS cells
Type: biochemical
ATTRIBUTE MEASURED: pEC50
Note on units: pEC50 is unitless, being -log10 of a concentration expressed in mol/L.

{"COMPOUND": "O=C1NC(=O)[C@@]2(CC[C@@]3(O)[C@H]4Cc5ccc(O)cc5[C@@]3(CCN4CC3CC3)C2)N1CC1CC1 [Compound 65]", "TESTED TARGET": "κ opioid receptor (Homo sapiens (Human))", "ATTRIBUTE MEASURED": "pEC50", "MEASURED RESULT": 7.44}
{"COMPOUND": "O=C1NC(=O)[C@@]2(CC[C@@]3(O)[C@H]4Cc5ccc(O)cc5[C@@]3(CCN4CC3CCCCC3)C2)N1 [Compound 27]", "TESTED TARGET": "κ opioid receptor (Homo sapiens (Human))", "ATTRIBUTE MEASURED": "pEC50", "MEASURED RESULT": 5.68}
{"COMPOUND": "O=C1NC(=O)[C@@]2(CC[C@@]3(O)[C@H]4Cc5ccc(O)cc5[C@@]3(CCN4CCC(F)(F)F)C2)N1 [Compound 33]", "TESTED TARGET": "κ opioid receptor (Homo sapiens (Human))", "ATTRIBUTE MEASURED": "pEC50", "MEASURED RESULT": 6.41}

Next:
Ask: I have this compound here, CN1C(=O)NC(=O)[C@@]12CC[C@@]1(O)[C@H]3Cc4ccc(O)cc4[C@@]1(CCN3CC1CC1)C2 [Compound 63] , and I need its recorded pEC50.
Result: 9.16
